Values from the supplement of paper PMC10646978

tested on: RAW-Dual (murine macrophage reporter line); assay: NF-kB reporter (SEAP) activity fold change vs agonist alone; higher = enhanced NF-kB activity; conditions: modulator concentration 10 µM; agonist: MPLA […]
Please provide measured NF-kB reporter for the entries that follow.
Give bare numbers.

Field: example entries. Status: answers known.
INSERT INTO assay_data (molecule, measured_quantity, reading) VALUES
  ('Cc1cc(-c2ccc(N=Cc3ccc(Cl)c([N+](=O)[O-])c3)c(C)c2)ccc1N=Cc1ccc(Cl)c([N+](=O)[O-])c1', 'NF-kB reporter', 1.02),
  ('O=C(O)C1C(c2ccccc2)C(C(=O)OCc2ccccc2)C1c1ccccc1 (stereo not given)', 'NF-kB reporter', 1.05),
  ('COc1ccc(Cl)cc1C(=O)NCCc1ccc(S(=O)(=O)NC(=O)NC2CCCCC2)cc1', 'NF-kB reporter', 0.987),
  ('COC(=O)CSc1ccc2nnc(-c3ccc(F)cc3)n2n1', 'NF-kB reporter', 1.06);

// below: NF-kB reporter requested for another molecule
In: Find the measured NF-kB reporter: item `O=C(O)CSc1nnc(Br)n1-c1ccc(C2CC2)c2ccccc12` , target or system RAW-Dual (murine macrophage reporter line).
Out: 0.899
